Data provenance is ChEMBL document CHEMBL2150995.

- experiment-summary: Drug uptake in C57 mouse kidney at 30 mg/kg, po measured at 8 hrs
- Type: ADME, organism-based
- Set-up: dose 30 mg/kg, route oral
- condition-info: read-out: Drug uptake
Kindly return yes (1) if reported concentration at 8 h is no lower than 900 nM; return no (0) if it is lower.

Task: Quick check: does COC(=O)c1c(Cc2ccc(C(=O)N[C@@H]3[C@@H]4C[C@@H]5C[C@H]3C[C@@](O)(C5)C4)cc2)c(=O)c2cccnc2n1-c1ccccc1 have concentration at 8 h greater than or equal to 900 nM?
Output: no (0)

Task: Quick check: does COC(=O)c1c(Cc2ccc(C(=O)NCC(C)(C)O)cc2)c(=O)c2cccnc2n1-c1ccccc1 have concentration at 8 h greater than or equal to 900 nM?
Output: yes (1)

Task: Quick check: does COC(=O)c1c(Cc2ccc(C(=O)NC(C)(C)CO)cc2)c(=O)c2cccnc2n1-c1ccccc1 have concentration at 8 h greater than or equal to 900 nM?
Output: no (0)

Task: Quick check: does COC(=O)c1c(Cc2ccc(C(=O)N[C@H]3CC[C@H](O)CC3)cc2)c(=O)c2cccnc2n1-c1ccccc1 have concentration at 8 h greater than or equal to 900 nM?
Output: yes (1)

Task: Quick check: does COC(=O)c1c(Cc2ccc(C(=O)N[C@H](CO)C(C)(C)C)cc2)c(=O)c2cccnc2n1-c1ccccc1 have concentration at 8 h greater than or equal to 900 nM?
Output: no (0)

Task: Quick check: does COC(=O)c1c(Cc2ccc(C(=O)NC3(CO)CC3)cc2)c(=O)c2cccnc2n1-c1ccccc1 have concentration at 8 h greater than or equal to 900 nM?
Output: no (0)
